Hey, just so you know, these numbers are from paper PMC7377239.

System: iCell cardiomyocytes (human iPSC-derived cardiomyocytes)
Procedure Details: Intracellular Ca2+ flux / beating parameters in iCell cardiomyocytes (FLIPR tetra), 90 min or 24 h
Format: cell-based
Stated Conditions: Homo sapiens, Cardiomyocyte, 1.5 h, 0.01 µM; 0.00 µM = 100.00; read-out: cm.spacing.cv.90min
Structures can show the parent of a compound that is named as a salt.
Assay Metric: activity at 0.01 µM
Remember to put the unit after the number in your answer.

Recorded results for 2 molecules are shown here.
# input molecule: O=S(=O)(O)Oc1ccc(-c2ccc(Cl)cc2)cc1 [4'-yl PCB 3 sulfate] ; wanted: its activity at 0.01 µM
138%

# input molecule: Oc1ccccc1-c1ccc(Cl)cc1 ; wanted: its activity at 0.01 µM
143%

Others:
# input molecule: Oc1cccc(-c2ccc(Cl)cc2)c1 ; wanted: its activity at 0.01 µM
101%

###

System: iCell endothelial cells (human iPSC-derived ECs)
Procedure Details: Tube formation (tubulogenesis) assay in iCell endothelial cells, 18 h
Type: cell-based
Stated Conditions: Homo sapiens, Endothelial cell, iPSC-EC tube formation, 18 hr, 0.10 µM, 0.00 µM control = 100.00, read-out: endo.ttl.18hr
Where a name gives a salt, the structure may show the parent alone.
Assay Metric: activity at 0.1 µM (%)
Could you give me the number in %? Just the number is fine.

Recorded results for 2 compounds are shown here.
# input compound: Oc1ccccc1-c1ccc(Cl)cc1 ; wanted: its activity at 0.1 µM
103

# input compound: Clc1ccc(Cl)c(-c2cc(Cl)ccc2Cl)c1 ; wanted: its activity at 0.1 µM
116

Others:
# input compound: O=S(=O)(O)Oc1cc(Cl)c(-c2cc(Cl)ccc2Cl)cc1Cl [4-yl PCB 52 sulfate] ; wanted: its activity at 0.1 µM
119

###

Tested on: HUVECs
Procedure Details: Tube formation (tubulogenesis) assay in HUVECs, 18 h
Format: cell-based, human
Stated Conditions: Homo sapiens, HUVEC, 18 h, HUVECs, 0.10 µM, 0.00 µM = 100.00, read-out: huvec.tta.18hr
Protocol: Similar to the cultivation of iCell®-endothelial cells, HUVEC maintenance and experimentation are detailed elsewhere ([Iwata et al. 2017]). […] Tube formation assays were performed on Geltrex™ LDEV-free reduced growth factor basement membrane using both iCell®-endothelial cells and HUVECs in 384-well format exactly as detailed in Iwata et al. ([2017]). […] Images were analyzed with the angiogenesis module software within MetaXpress™ (Molecular Devices). […]
Structures can show the parent of a compound that is named as a salt.
activity at 0.1 µM values for the compounds below.
Could you give me the number in %? Just the number is fine.

# input compound: Clc1ccc(Cl)c(-c2cc(Cl)ccc2Cl)c1 ; wanted: its activity at 0.1 µM
105

# input compound: Oc1cccc(-c2ccc(Cl)cc2)c1 ; wanted: its activity at 0.1 µM
124

# input compound: Oc1cc(Cl)c(-c2cc(Cl)ccc2Cl)cc1Cl ; wanted: its activity at 0.1 µM
107

# input compound: Oc1ccc(O)c(-c2ccc(Cl)cc2)c1 ; wanted: its activity at 0.1 µM
107

Others:
# input compound: O=S(=O)(O)Oc1ccc(-c2ccc(Cl)cc2)cc1 [4'-yl PCB 3 sulfate] ; wanted: its activity at 0.1 µM
140

###

System: HUVECs
Procedure Details: High-content imaging cytotoxicity in HUVECs, 24 h
Assay type: cell-based, human
Stated Conditions: Homo sapiens, HUVEC, 24 h, HUVECs, 24 hr, 1.00 µM; 0.00 µM = 100.00; read-out: huvec.nma.24hr
Where a name gives a salt, the structure may show the parent alone.
activity at 1 µM values for the compounds below.
Could you give me the number in %? Just the number is fine.

Recorded results for 2 compounds are shown here.
I'm curious: which activity at 1 µM was measured for O=S(=O)(O)Oc1cc(Cl)ccc1-c1ccccc1 [2-yl PCB 3 sulfate] tested on HUVECs?
95.4

I'm curious: which activity at 1 µM was measured for Oc1cccc(-c2ccc(Cl)cc2)c1 tested on HUVECs?
92

Others:
I'm curious: which activity at 1 µM was measured for Oc1ccc(-c2cccc(Cl)c2)cc1Cl tested on HUVECs?
97.1

###

Tested on: iCell cardiomyocytes (human iPSC-derived cardiomyocytes)
Procedure Details: Intracellular Ca2+ flux / beating parameters in iCell cardiomyocytes (FLIPR tetra), 90 min or 24 h
Type: cell-based
Stated Conditions: Homo sapiens, Cardiomyocyte, 24 h, 0.10 µM; 0.00 µM = 100.00; read-out: cm.bpm.24hrs
activity at 0.1 µM values for the compounds below.
Could you give me the number in %? Just the number is fine.

Recorded results for 2 compounds are shown here.
# input compound: Oc1ccc(-c2ccc(Cl)cc2)cc1 ; wanted: its activity at 0.1 µM
54.4

# input compound: Oc1cccc(-c2ccc(Cl)cc2)c1 ; wanted: its activity at 0.1 µM
97.4

Moving on to the next compound.
# input compound: Oc1ccc(O)c(-c2ccc(Cl)cc2)c1 ; wanted: its activity at 0.1 µM
100

###

Tested on: HUVECs
Procedure Details: High-content imaging cytotoxicity in HUVECs, 24 h
Assay type: cell-based, human
Stated Conditions: Homo sapiens, HUVEC, 24 h, HUVECs, 24 hr, 100.00 µM; 0.00 µM = 100.00; read-out: huvec.mitoint.24hr
Where a name gives a salt, the structure may show the parent alone.
activity at 100 µM values for the compounds below.
Could you give me the number in %? Just the number is fine.

Recorded results for 3 compounds are shown here.
# input compound: Clc1ccc(-c2ccccc2)cc1 ; wanted: its activity at 100 µM
51

# input compound: O=S(=O)(O)Oc1cc(Cl)c(-c2cc(Cl)ccc2Cl)cc1Cl [4-yl PCB 52 sulfate] ; wanted: its activity at 100 µM
74.7

# input compound: Oc1ccc(-c2ccc(Cl)cc2)cc1 ; wanted: its activity at 100 µM
11.1

Moving on to the next compound.
# input compound: COc1ccc(-c2cccc(Cl)c2)cc1Cl ; wanted: its activity at 100 µM
65.8

###

System: iCell endothelial cells (human iPSC-derived ECs)
Procedure Details: Tube formation (tubulogenesis) assay in iCell endothelial cells, 18 h
Type: cell-based
Stated Conditions: Homo sapiens, Endothelial cell, iPSC-EC tube formation, 18 hr, 0.01 µM, 0.00 µM control = 100.00, read-out: endo.tta.18hr
Structures can show the parent of a compound that is named as a salt.
activity at 0.01 µM values for the compounds below.

# input compound: Oc1ccc(-c2cccc(Cl)c2)cc1Cl ; wanted: its activity at 0.01 µM
164%

# input compound: O=S(=O)(O)Oc1cc(Cl)ccc1-c1ccccc1 [2-yl PCB 3 sulfate] ; wanted: its activity at 0.01 µM
134%

# input compound: Oc1cccc(-c2ccc(Cl)cc2)c1 ; wanted: its activity at 0.01 µM
119%

###

Test system: iCell cardiomyocytes (human iPSC-derived cardiomyocytes)
Procedure Details: High-content imaging of cytotoxicity and mitochondrial integrity in iPSC-CMs
Format: cell-based
Stated Conditions: Homo sapiens, Cardiomyocyte, 1.5 h, 10.00 µM; 0.00 µM = 100.00; read-out: cm.mii.90min
Experimental: Details on cardiomyocyte cell culture are described in detail elsewhere ([Grimm et al. 2015b]; [Sirenko et al. 2013a]). […] Live cell counts for each cell suspension were determined by trypan blue staining and cells were further diluted to provide final cell densities of 2×10^5 viable cells/ml. […] Phenotypic responses were quantitatively assessed using concentration–response modeling as detailed elsewhere ([Sirenko et al. 2017]). […]
Structures can show the parent of a compound that is named as a salt.
activity at 10 µM values for the compounds below.
Could you give me the number in %? Just the number is fine.

Recorded results for 3 compounds are shown here.
I'm curious: which activity at 10 µM was measured for Oc1ccccc1-c1ccc(Cl)cc1 [2'-OH PCB3] tested on iCell cardiomyocytes (human iPSC-derived cardiomyocytes)?
92.5

I'm curious: which activity at 10 µM was measured for Oc1ccc(-c2ccc(Cl)cc2)cc1 [4'-OH PCB3] tested on iCell cardiomyocytes (human iPSC-derived cardiomyocytes)?
98.5

I'm curious: which activity at 10 µM was measured for COc1ccc(-c2ccc(Cl)cc2)cc1 [4'-OMe PCB3] tested on iCell cardiomyocytes (human iPSC-derived cardiomyocytes)?
109

Others:
I'm curious: which activity at 10 µM was measured for O=S(=O)(O)Oc1cc(-c2ccccc2)ccc1Cl [3-yl PCB 3 sulfate] tested on iCell cardiomyocytes (human iPSC-derived cardiomyocytes)?
98.4

###

Test system: iPSC-CMs, iPSC-ECs and HUVECs phenotypes
Procedure Details: ToxPi 2.0 integration of POD values and physicochemical descriptors
Design: species or system human
Stated Conditions: ToxPi-scaled (0-1) score; iPSC cardiomyocytes, 24 h
Where a name gives a salt, the structure may show the parent alone.
cm.cam.24hrs values for the compounds below.
Hey, just send me the number, nothing else.

Recorded results for 3 compounds are shown here.
# input compound: Oc1ccc(-c2cccc(Cl)c2)cc1Cl ; wanted: its cm.cam.24hrs
0.33

# input compound: O=S(=O)(O)Oc1ccc(-c2ccc(Cl)cc2)cc1 [4'-PCB 3 sulfate] ; wanted: its cm.cam.24hrs
0

# input compound: O=C1C=CC(=O)C(c2ccc(Cl)cc2)=C1 ; wanted: its cm.cam.24hrs
1

Moving on to the next compound.
# input compound: O=S(=O)(O)Oc1cccc(-c2ccc(Cl)cc2)c1 [3'-PCB 3 sulfate] ; wanted: its cm.cam.24hrs
0
